- Measurement Description: Cytotoxicity against mouse Hepa-1c1c7 cells assessed as cell survival at 5 uM after 48 hrs by MTT assay
- Assay type: cell-based
- Condition Parameters: read-out: Activity

| Smiles Repr | viability at 48 h, 5 µM / % |
| --- | --- |
| COc1cc(OC)c2c(c1)OC(=O)/C2=C\c1ccc(Cl)cc1 | 115 |
| O=C1Oc2ccc(O)cc2/C1=C/c1ccc(O)cc1 | 111 |
| COc1cc(OC)c2c(c1)O/C(=C\c1ccccc1F)C2=O | 66 |
| COc1cc(OC)c2c(c1)O/C(=C\c1ccc(N(C)C)cc1)C2=O | 101 |
| COc1cc(OC)c2c(c1)O/C(=C\c1ccc(Cl)cc1)C2=O | 93 |

###

- Measurement Description: Induction of NQO1 activity in mouse Hepa-1c1c7 cells at 25 uM after 48 hrs relative to control
Below, each entry is listed with its recorded fold change (FC).

| Compound | fold change (FC) |
| --- | --- |
| COc1cc(OC)c2c(c1)O/C(=C\c1ccc(C#N)cc1)C2=O | 1.37 |
| O=C1/C(=C/c2ccc(O)cc2)Oc2ccc(O)cc21 | 0.94 |
| O=C1/C(=C/c2ccccc2Cl)Oc2ccc(O)cc21 | 1.71 |
| O=C1/C(=C/c2ccc(Cl)cc2)Oc2cc(O)ccc21 [6-HYDROXY-4'-CHLORO AURONE] | 2.55 |
| N#Cc1ccc(/C=C2\Oc3cc(O)cc(O)c3C2=O)cc1 | 1.35 |
| O=C1Oc2ccc(O)cc2/C1=C/c1ccc(F)cc1 | 1.23 |
| COc1cc(OC)c2c(c1)O/C(=C\c1ccc([N+](=O)[O-])cc1)C2=O | 1.6 |
| O=C1/C(=C/c2ccc(O)cc2)Oc2cc(O)cc(O)c21 | 1.95 |
| COc1ccc(/C=C2\Oc3cc(OC)cc(OC)c3C2=O)cc1 | 0.91 |
| COc1cc(OC)c2c(c1)OC(=O)/C2=C\c1ccc(Cl)cc1 | 1.9 |
| COc1cccc(/C=C2\Oc3ccc(O)cc3C2=O)c1 | 1.18 |
| N#Cc1ccc(/C=C2\Oc3ccc(O)cc3C2=O)cc1 | 1.25 |

###

- Measurement Description: Cytotoxicity against mouse Hepa-1c1c7 cells assessed as cell survival at 5 uM after 48 hrs by MTT assay
- Format: cell-based
- Condition Parameters: read-out: Activity
Assay Readout: viability at 48 h, 5 µM

| Smiles Repr | Assay Value |
| --- | --- |
| N#Cc1ccc(/C=C2\Oc3cc(O)cc(O)c3C2=O)cc1 | 115% |
| O=C1/C(=C/c2ccccc2O)Oc2ccc(O)cc21 | 99% |
| COc1cc(OC)c2c(c1)OC(=O)/C2=C\c1ccccc1O | 121% |
| COc1cc(OC)c2c(c1)O/C(=C\c1cccc(F)c1)C2=O | 89% |
| COc1cc(OC)c2c(c1)O/C(=C\c1ccc([N+](=O)[O-])cc1)C2=O | 88% |
| O=C1Oc2ccc(O)cc2/C1=C/c1ccc(Cl)cc1 | 90% |
| COc1cc(/C=C2\Oc3cc(O)cc(O)c3C2=O)cc(OC)c1OC | 99% |
| COc1cc(OC)c2c(c1)O/C(=C\c1ccncc1)C2=O | 101% |
| COc1cc(OC)c2c(c1)O/C(=C\c1ccc(N3CCN(C)CC3)cc1)C2=O | 93% |
| O=C1/C(=C/c2ccccc2F)Oc2cc(O)cc(O)c21 | 110% |
| O=C1/C(=C/c2ccccc2O)Oc2ccccc21 | 110% |
| COc1cccc(/C=C2\Oc3cc(OC)cc(OC)c3C2=O)c1 | 100% |
| O=C1/C(=C/c2cccc(Cl)c2)Oc2ccc(O)cc21 | 101% |
| COc1cc(OC)c2c(c1)O/C(=C\c1ccc(O)cc1)C2=O | 94% |
| COc1cc(OC)c2c(c1)O/C(=C\c1ccccc1Cl)C2=O | 105% |
| COc1ccccc1/C=C1\Oc2cc(O)cc(O)c2C1=O | 103% |
| O=C1/C(=C/c2cccc(O)c2)Oc2ccc(O)cc21 | 98% |

Ref: ChEMBL document CHEMBL1177857
